- SYSTEM: M1 muscarinic receptor (Homo sapiens)
- Construct: expressed in transfected cells; host or cells: CHO (M1-CHO)
- EXPERIMENTAL_DETAILS: Functional mobilization of intracellular calcium (FLIPR) in M1-CHO cells
- Type: cell-based
- PROTOCOL_CONDITIONS: M1 receptor, calcium mobilization; read-out: M1 Efficacy
MEASURED_ATTRIBUTE: Emax

# return Emax of CC(C)OC(=O)N1C2CCC1CC(N1CCC3(CC1)COc1ccc(F)cc13)C2 (centres unmarked) (system: M1 muscarinic receptor (Homo sapiens))
65 to 85%

# return Emax of O=C(O[C@@H]1CCOC1)N1C2CCC1CC(N1CCC3(CC1)COc1ccc(F)cc13)C2 (some centres unmarked) (system: M1 muscarinic receptor (Homo sapiens))
< 65%

# return Emax of O=C(OC1CCC1)N1C2CCC1CC(N1CCC3(CC1)COc1ccc(F)cc13)C2 (centres unmarked) (system: M1 muscarinic receptor (Homo sapiens))
< 65%

# return Emax of `CC#CCOC(=O)N1CCC(N2CCC3(CC2)CN(C(C)=O)c2ccc(F)cc23)CC1` (system: M1 muscarinic receptor (Homo sapiens))
65 to 85%

# return Emax of Fc1ccc2c(c1)C1(CCN(CC3CCC4CCC3C4)CC1)CN2 (centres unmarked) (system: M1 muscarinic receptor (Homo sapiens))
65 to 85%

# return Emax of CC(=O)NC1CC2(CCN(CC3CC4C=CC3C4)CC2)c2ccccc21 (centres unmarked) (system: M1 muscarinic receptor (Homo sapiens))
65 to 85%

# return Emax of `CS(=O)(=O)N[C@@H]1CC2(CCN(C[C@H]3C[C@H]4CC[C@H]3C4)CC2)c2ccccc21` (system: M1 muscarinic receptor (Homo sapiens))
> 85%

# return Emax of CC(C)NC(=O)N1C2CCC1CC(N1CCC3(CC1)COc1ccc(F)cc13)C2 (centres unmarked) (system: M1 muscarinic receptor (Homo sapiens))
< 65%

* * *

- SYSTEM: M1 muscarinic receptor (Homo sapiens)
- Construct: expressed in transfected cells; host or cells: CHO (M1-CHO)
- EXPERIMENTAL_DETAILS: Functional mobilization of intracellular calcium (FLIPR) in M1-CHO cells
- Type: cell-based
- PROTOCOL_CONDITIONS: M1 receptor, calcium mobilization; read-out: M1 Efficacy
Please respond with reported Emax for every item in the list.

Provide measured Emax value, entry: `Fc1ccc2c(c1)C1(CCN(C3CCCCC3)CC1)CO2`
65 to 85%

Provide measured Emax value, entry: `CCOC(=O)N1CCC(N2CCC3(CC2)CN(C(C)=O)c2ccc(-c4cccc(C#N)c4)cc23)CC1`
65 to 85%

Provide measured Emax value, entry: `CCOC(=O)N1CCC(N2CCC3(CC2)CN(C(=O)c2ccccc2F)c2ccc(F)cc23)CC1`
< 65%

Provide measured Emax value, entry: `Fc1ccc2c(c1)C1(CCN([C@H]3C[C@@H]4CC[C@@H]3C4)CC1)CO2`
65 to 85%

Provide measured Emax value, entry: CC(=O)N1CC2(CCN(C3CC4CCC(C3)N4C(=O)OC(C)C)CC2)c2cc(F)ccc21 (centres unmarked)
< 65%

Provide measured Emax value, entry: CC(=O)NC1CC2(CCN(C3CC4CCC3C4)CC2)c2ccccc21 (centres unmarked)
65 to 85%

Provide measured Emax value, entry: `CC(=O)N1CC2(CCN(CC3CCCC3)CC2)c2cc(F)ccc21`
65 to 85%

Provide measured Emax value, entry: CN(C)C(=O)N1C2CCC1CC(N1CCC3(CC1)COc1ccc(F)cc13)C2 (centres unmarked)
65 to 85%

* * *

Please respond with reported Emax for every item in the list.
- SYSTEM: M4 muscarinic receptor (Homo sapiens)
- Construct: expressed in transfected cells; host or cells: CHO (M4-CHO)
- Sequence (P08173 whole entry): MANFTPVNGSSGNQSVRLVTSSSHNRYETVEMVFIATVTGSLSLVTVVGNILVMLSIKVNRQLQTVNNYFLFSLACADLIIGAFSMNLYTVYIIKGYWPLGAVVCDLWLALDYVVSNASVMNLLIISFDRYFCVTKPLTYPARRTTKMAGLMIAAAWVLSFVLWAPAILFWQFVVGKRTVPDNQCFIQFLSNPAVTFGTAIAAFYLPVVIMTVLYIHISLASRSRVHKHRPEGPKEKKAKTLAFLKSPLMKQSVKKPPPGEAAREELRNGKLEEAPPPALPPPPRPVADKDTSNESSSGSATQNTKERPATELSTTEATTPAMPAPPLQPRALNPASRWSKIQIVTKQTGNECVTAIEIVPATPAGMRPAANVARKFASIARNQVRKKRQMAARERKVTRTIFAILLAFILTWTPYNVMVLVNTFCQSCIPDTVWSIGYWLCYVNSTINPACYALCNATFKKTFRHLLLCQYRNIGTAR
- EXPERIMENTAL_DETAILS: Functional mobilization of intracellular calcium (FLIPR) in M4-CHO cells
- Type: cell-based
- PROTOCOL_CONDITIONS: Table 4; 100% efficacy is the maximum response obtained with the Carbachol control

Provide measured Emax value, entry: `O=C(N[C@H]1CC2(CCN(CC3CCCCC3)CC2)c2ccccc21)c1ccoc1`
< 25%

Provide measured Emax value, entry: `CC(=O)CN1CC2(CCN(C3CCCCCC3)CC2)c2cc(F)ccc21`
25 to 100%

Provide measured Emax value, entry: CN(C)C(=O)N1CC2(CCN(C3CCCN(C(=O)OCCF)CC3)CC2)c2cc(F)ccc21 (stereo not shown)
25 to 100%

Provide measured Emax value, entry: `CC(=O)N[C@@H]1CC2(CCN(C3CCC3)CC2)c2ccccc21`
< 25%

Provide measured Emax value, entry: `O=C(N[C@H]1CC2(CCN([C@@H]3C[C@H]4CC[C@@H]3C4)CC2)c2ccccc21)N1CCCC1`
25 to 100%

Provide measured Emax value, entry: Cc1ccc2c(c1)C1(CCN(C3CC4CCC3C4)CC1)CN2C(=O)c1ccco1 (stereo not shown)
< 25%

Provide measured Emax value, entry: `CCO/N=C1\CC2(CCN(CC3CCCCC3)CC2)c2cc(Cl)ccc21`
25 to 100%

Provide measured Emax value, entry: `CC(=O)N1CC2(CCN(C[C@H]3CCN(C(=O)OCC(F)F)C3)CC2)c2ccccc21`
25 to 100%

Provide measured Emax value, entry: `CCOC(=O)N1CCC(N2CCC3(CC2)CN(C(C)=O)c2c(-c4ccc(C)cc4)cccc23)CC1`
< 25%

Provide measured Emax value, entry: O=C1CC2(CCN(CC3CC4C=CC3C4)CC2)c2cc(Cl)ccc21 (stereo not shown)
25 to 100%

Provide measured Emax value, entry: `C[C@H](O)CC(=O)N1CCC(N2CCC3(CC2)CN(C(=O)N(C)C)c2ccc(F)cc23)CC1`
25 to 100%

Provide measured Emax value, entry: `O=C(N[C@H]1CCC2(CCN(CC3CCCCC3)CC2)c2ccccc21)C1CC1`
25 to 100%

Provide measured Emax value, entry: `CCOC(=O)N1CCC(N2CCC3(CC2)CN(C(C)=O)c2c(-c4cccc(C)c4)cccc23)CC1`
< 25%

Provide measured Emax value, entry: OC1CC2(CCN([C@@H]3C[C@H]4CC[C@@H]3C4)CC2)c2ccccc21 (stereo partly shown)
25 to 100%

Provide measured Emax value, entry: `CN(C)C(=O)N1CC2(CCN(C3CCN(C(=O)CCC(F)(F)F)CC3)CC2)c2cc(F)ccc21`
< 25%

Provide measured Emax value, entry: `CC#CCOC(=O)N1CC[C@H](CN2CCC3(CC2)CN(C(C)=O)c2ccccc23)C1`
25 to 100%

* * *

Please respond with reported EC50 for every item in the list.
- SYSTEM: M1 muscarinic receptor (Homo sapiens, UniProt P11229)
- Construct: expressed in transfected cells; host or cells: CHO (M1-CHO)
- Sequence (P11229 whole entry): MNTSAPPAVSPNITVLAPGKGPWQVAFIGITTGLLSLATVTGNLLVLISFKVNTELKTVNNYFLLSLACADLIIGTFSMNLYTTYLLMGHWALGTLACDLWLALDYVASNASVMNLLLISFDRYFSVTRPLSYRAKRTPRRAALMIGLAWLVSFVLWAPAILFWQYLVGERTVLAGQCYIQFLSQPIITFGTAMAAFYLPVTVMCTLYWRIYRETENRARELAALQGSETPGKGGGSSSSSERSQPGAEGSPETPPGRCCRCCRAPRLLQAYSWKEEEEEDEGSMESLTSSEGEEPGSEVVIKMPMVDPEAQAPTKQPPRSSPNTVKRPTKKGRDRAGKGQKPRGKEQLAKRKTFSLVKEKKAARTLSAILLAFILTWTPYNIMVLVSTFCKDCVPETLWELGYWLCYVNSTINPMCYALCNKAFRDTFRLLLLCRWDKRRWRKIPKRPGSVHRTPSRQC
- EXPERIMENTAL_DETAILS: Functional mobilization of intracellular calcium (FLIPR) in M1-CHO cells
- Assay type: cell-based
- PROTOCOL_CONDITIONS: M1-CHO cells, calcium mobilization (FLIPR)

# return EC50 of O=C(C1CC1)N1CC2(CCN(C3CC4CCC(C3)N4C(=O)OC3CCC3)CC2)c2cc(F)ccc21 (stereo not shown) (system: M1 muscarinic receptor (Homo sapiens, UniProt P11229))
< 100 nM

# return EC50 of `COC(=O)N1CCC(CN2CCC3(CC2)CN(C(C)=O)c2ccc(C)cc23)CC1` (system: M1 muscarinic receptor (Homo sapiens, UniProt P11229))
100 to 1000 nM

# return EC50 of CC(=O)NC1CC2(CCN(C[C@H]3C[C@H]4C=C[C@H]3C4)CC2)c2ccccc21 (stereo partly shown) (system: M1 muscarinic receptor (Homo sapiens, UniProt P11229))
< 100 nM

# return EC50 of COCCOC(=O)N1CC2(CCN(C3CC4CCC(C3)N4C(=O)OC(C)C)CC2)c2cc(F)ccc21 (stereo not shown) (system: M1 muscarinic receptor (Homo sapiens, UniProt P11229))
< 100 nM

# return EC50 of `CCOC(=O)N1CCC(N2CCC3(CC2)CN(C(=O)OCC)c2ccc(F)cc23)CC1` (system: M1 muscarinic receptor (Homo sapiens, UniProt P11229))
100 to 1000 nM

# return EC50 of CC(=O)NC1CC2(CCN(C[C@@H]3C[C@H]4C=C[C@H]3C4)CC2)c2ccccc21 (stereo partly shown) [compound 421] (system: M1 muscarinic receptor (Homo sapiens, UniProt P11229))
> 1000 nM

# return EC50 of `Clc1ccc2c(c1)C1(CCN(CC3CCOCC3)CC1)CO2` (system: M1 muscarinic receptor (Homo sapiens, UniProt P11229))
> 1000 nM

# return EC50 of CCOC(=O)N1C2CCC1CC(N1CCC3(CC1)CN(C(=O)OC1CCC1)c1ccc(F)cc13)C2 (stereo not shown) (system: M1 muscarinic receptor (Homo sapiens, UniProt P11229))
< 100 nM

# return EC50 of `CCOC(=O)N1CCC(N2CCC3(CC2)CN(C(=O)c2ccccc2)c2ccc(F)cc23)CC1` (system: M1 muscarinic receptor (Homo sapiens, UniProt P11229))
100 to 1000 nM

# return EC50 of `Fc1ccc2c(c1)C1(CCN(C[C@@H]3C[C@H]4CC[C@H]3O4)CC1)CN2` (system: M1 muscarinic receptor (Homo sapiens, UniProt P11229))
100 to 1000 nM

# return EC50 of CCCOC(=O)N1C2CCC1CC(N1CCC3(CC1)CN(C(=O)OCCOC)c1ccc(F)cc13)C2 (stereo not shown) (system: M1 muscarinic receptor (Homo sapiens, UniProt P11229))
100 to 1000 nM

# return EC50 of `CC(=O)N1CC2(CCN(C3CCCCC3)CC2)c2cc(F)ccc21` (system: M1 muscarinic receptor (Homo sapiens, UniProt P11229))
< 100 nM

# return EC50 of `CCOC(=O)N1CCC(N2CCC3(CC2)CN(C(=O)c2cccc(F)c2)c2ccc(F)cc23)CC1` (system: M1 muscarinic receptor (Homo sapiens, UniProt P11229))
100 to 1000 nM

# return EC50 of `CCOC(=O)N1CCC(N2CCC3(CC2)CN(C(C)=O)c2ccc(F)cc23)CC1` (system: M1 muscarinic receptor (Homo sapiens, UniProt P11229))
< 100 nM

# return EC50 of CCOC(=O)N1C2CCC1CC(N1CCC3(CC1)CN(C(=O)C(C)C)c1ccc(F)cc13)C2 (stereo not shown) (system: M1 muscarinic receptor (Homo sapiens, UniProt P11229))
< 100 nM

# return EC50 of CCNC(=O)N1CC2(CCN(C3CC4CCC3C4)CC2)c2cc(C)ccc21 (stereo not shown) (system: M1 muscarinic receptor (Homo sapiens, UniProt P11229))
> 1000 nM

# credit: patent US7786141B2
